# System name: α2B receptor (Homo sapiens)
# Construct: host or cells: LM(tk-) cells, line L-NGC-α2B
# Sequence (P18089 whole entry): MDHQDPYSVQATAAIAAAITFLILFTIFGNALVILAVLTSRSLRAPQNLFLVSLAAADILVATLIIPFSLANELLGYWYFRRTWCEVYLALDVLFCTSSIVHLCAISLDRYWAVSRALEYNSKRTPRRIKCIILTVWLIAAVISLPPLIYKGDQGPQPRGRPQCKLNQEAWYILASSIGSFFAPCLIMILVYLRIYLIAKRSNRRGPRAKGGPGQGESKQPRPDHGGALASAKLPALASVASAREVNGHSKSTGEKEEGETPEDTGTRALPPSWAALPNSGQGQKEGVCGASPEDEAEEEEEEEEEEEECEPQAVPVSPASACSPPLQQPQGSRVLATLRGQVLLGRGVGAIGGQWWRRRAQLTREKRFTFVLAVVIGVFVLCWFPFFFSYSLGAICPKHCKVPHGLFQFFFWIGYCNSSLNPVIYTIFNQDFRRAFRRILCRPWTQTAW
# Protocol summary: Competition binding, [3H]rauwolscine, human α2B receptor
# Stated conditions: PKi alpha-2 2b, [3H]rauwolscine, human receptor, LM(tk-) cell lysates; mean
Measured quantity: Ki (nM)
Give the value, in units of nM, as a plain number.

- Compound: "CCC1=C(C(=O)NC)C(c2ccc([N+](=O)[O-])cc2)C(C(=O)NCCCN2CCC(c3ccccc3)(c3ccccc3)CC2)=C(CCCCN)N1 (stereo not drawn)"
  Number: 3470

Ask: Entry CC(=O)C1=C(C)NC(CCCCN)=C(C(=O)NCCCN2CCC(c3ccccc3)(c3ccccc3)CC2)C1c1ccc([N+](=O)[O-])cc1 (stereo not drawn) has what Ki?
Reply: 1200

Ask: Entry CCC1=C(C(N)=O)C(c2ccc([N+](=O)[O-])cc2)C(C(=O)NCCCN2CCC(c3ccccc3)(c3ccccc3)CC2)=C(CCCCN)N1 (stereo not drawn) has what Ki?
Reply: 2000

Ask: Entry CCC1=C(C(=O)NC)C(c2ccc([N+](=O)[O-])cc2)C(C(=O)NCCCN2CCC(c3ccccc3)(c3ccccc3)CC2)=C(CCCCOC)N1 (stereo not drawn) has what Ki?
Reply: 955

Ask: Entry CC(=O)C1=C(C)NC(COCCN)=C(C(=O)NCCCN2CCC(c3ccccc3)(c3ccccc3)CC2)C1c1ccc([N+](=O)[O-])cc1 (stereo not drawn) has what Ki?
Reply: 851

Ask: Entry CNC(=O)C1=C(C)NC(C)=C(C(=O)NCCCN2CCC(c3ccccc3)(c3ccccc3)CC2)C1c1ccc2c(c1)OCCO2 (stereo not drawn) has what Ki?
Reply: 1700
